# Tested on: DMS-114
# assayName: NCI tumour cell line growth inhibition, 48 h
Activity calls are given as the source filed them. Cut-off read from the data, not from the text of the source: active = GI50 up to about 1.1 µM and inactive = higher.
Each entry below lists one item and its recorded GI50 value.
propertyMeasured: GI50

compound | measurement
c1ccc2c(c1)n1nnnc1c1nnnn21 | 83.4 µM (inactive)
C=CCN(N=O)C(=O)N(CCCC(NC(C)=O)C(=O)NCc1ccccc1)Cc1ccccc1 (centres undefined) | 36.9 µM (inactive)
COc1ccc(S(=O)(=O)NNS(C)(=O)=O)cc1 | > 100 µM (inactive)
CC1(C)N=C(N)N=C(N)N1c1ccc(OCCCOc2ccccc2)c(Cl)c1 | 0.076 µM (active)
COc1cc(C2C(C(=O)O)=C(CO)Oc3cc4c(cc32)OCO4)cc(OC)c1OC (centres undefined) | > 100 µM (inactive)
Brc1ccc(/C=N/C23CC4CC(CC(C4)C2)C3)cc1 | > 100 µM (inactive)
Cc1cccc2[n+]1[C@H]1[C@H]([C@@H]3O[C@H]1c1ccccc13)[S+]([O-])N2 (some centres undefined) | 22.7 µM (inactive)
COC1=C(Br)C(=O)c2nc(C)ccc2C1=O | 15 µM (inactive)
CCOc1ccc(NC(=O)CCC(=O)NN)cc1 | > 100 µM (inactive)
CC1CC(c2ccccc2)=Nc2ccccc2S1(=O)=O (centres undefined) | 20.9 µM (inactive)
N/N=C1\C(=O)N(c2ccc(Cl)c(Cl)c2)C(=O)C1C(=O)Nc1ccc(Cl)c(Cl)c1 (centres undefined) | 57.5 µM (inactive)
Cc1cc(C)c(N)c(C)c1N | > 100 µM (inactive)
C=CCN(N=O)C(=O)NCCCCC(NC(C)=O)C(=O)NCc1ccccc1 (centres undefined) | > 100 µM (inactive)
CC(Oc1ccc2c(=O)cc(-c3ccccc3)oc2c1)C(=O)O (centres undefined) | > 100 µM (inactive)
CCOC(=O)C(=O)Nc1c(C)cccc1C(C)C | > 100 µM (inactive)
CN(C)C(c1ccccc1)C(O)c1ccccc1 (centres undefined) | > 100 µM (inactive)
O=CN/C=C/c1cccc(O)c1 | > 100 µM (inactive)
COc1ccc(CCN2CCC(C#N)(c3ccc(OC)c(OC)c3)CC2)cc1OC | 60.4 µM (inactive)
Cc1[nH]c2cc([N+](=O)[O-])ccc2c1[N+](=O)[O-] | 9.93 µM (inactive)
COC1=CC(=O)C=C(OC)C1=O | 5.81 µM (inactive)
O=C(/C(=C\c1ccccc1)CN1CCOCC1)c1ccc(Br)cc1 | 1.78 µM (inactive)
COc1ccc(NC(=O)NS(=O)(=O)c2ccc(C)cc2)nn1 | > 100 µM (inactive)
Cn1ncc2c(c1=O)Nc1ccccc1S2(=O)=O | 22 µM (inactive)
CC(=O)C1=C(C)Cn2c(=O)c3ccccc3c(=O)n2C1 | > 100 µM (inactive)

----------
# Tested on: SK-MEL-5
# assayName: NCI tumour cell line growth inhibition, 48 h
Calls of active or inactive are those of the source. Cut-off read from the data, not from the text of the source: active = GI50 up to about 1.1 µM and inactive = higher.
Outcome codes: active, inactive

compound | qualitativeLabel
CN(C)c1ccc(N2C(=S)SC(=N\c3ccccc3)/C2=N/c2ccccc2)cc1 | inactive
CCN(CC)c1ccc2cc(C(N)=S)c(=N)oc2c1 | inactive
CCOc1ccc(/N=C/c2cccc3cccnc23)cc1 | inactive
CCOC(=O)C1=C(C(=O)OCC)C2c3ccccc3C=CN2C(C(=O)OCC)=C(SC)S1 (stereo unspecified) | inactive
COc1ccc(C(=O)c2ccc(-n3cc(/C=C/[N+](=O)[O-])c4ccccc43)cc2)cc1 | inactive
CC(=O)Nc1ccc(-c2nnc(SCC(=O)Nc3ccc(C)cc3)o2)cc1 | inactive
O=C1NC(=S)NC(=O)C1=Cc1cc2c(cc1[N+](=O)[O-])OCO2 | inactive
COc1cc2c(/C=C3/C(=O)Nc4ccccc43)c(Cl)[nH]c2cc1C | active
Cc1ccc(S(=O)(=O)n2c3ccc(Br)cc3c3nc4ccccc4nc32)cc1 | inactive
COCCOC1=CC(=O)c2c(O)ccc(O)c2C1=O | active
O=C1CN2CCN(CC2)CC(=O)Nc2ccc(cc2)S(=O)(=O)c2ccc(cc2)NC(=O)CN2CCN(CC2)CC(=O)Nc2ccc(cc2)S(=O)(=O)c2ccc(cc2)N1 | inactive
COc1ccc(C(C#N)NNC(=O)Cc2ccccc2)cc1OC (stereo unspecified) | inactive
CCOC(=O)c1c(N=P(c2ccccc2)(c2ccccc2)c2ccccc2)nnc(-c2ccccc2)c1-c1ccccc1 | inactive
O=C1C=CC2CCC1C2 (stereo unspecified) | inactive
COc1cccc(N2C(=O)C3c4[nH]c5ccc(C)cc5c4C4CCC(C)CC4C3C2=O)c1 (stereo unspecified) | inactive
O=[N+]([O-])c1ccc(/N=N/c2c(O)ccc3cc(S(=O)(=O)O)cc(S(=O)(=O)O)c23)cc1 | inactive
COc1ccc(OC)c2sc(N3C(=O)/C(=C/c4ccccc4S)N=C3c3ccccc3)nc12 | inactive
COC1OC2COC(C)(C)OC2C2OC(C)(C)OC12 (stereo unspecified) | inactive
COC(=O)c1ccc(C(=O)OC)c2nc3cc(C)ccc3nc12 | inactive
CCCCCCCCCCCCOC1C(COCCN2CCCC2)OC2OC(C)(C)OC21 (stereo unspecified) | inactive
Cc1ccc(S(=O)(=O)Nc2ccccc2C=O)cc1 | inactive

----------
# Tested on: CCRF-CEM
# assayName: NCI tumour cell line growth inhibition, 48 h
The source made the active and inactive calls. Cut-off read from the data, not from the text of the source: active = GI50 up to about 1.1 µM and inactive = higher.
Outcome codes: t for active, f for inactive

compound | testedSystem | qualitativeLabel
COc1ccc(-c2nc(N)c3ncn(C4OC(CO)C(O)C4O)c3n2)cc1 (stereo not drawn) | CCRF-CEM | f
CC(C)C1SCc2nc3ccccc3n21 (stereo not drawn) | CCRF-CEM | f
C=CCOc1ccc2c(C)cc(=O)oc2c1C | CCRF-CEM | f
O=C(N/N=C(/c1nc2ccc(Cl)cc2[nH]c1=O)C(O)c1ccc(Cl)cc1Cl)c1ccncc1 (stereo not drawn) | CCRF-CEM | f
C=C1C(=O)OC2C1CC(OC(C)=O)/C(C)=C/CCC1(C)OC21 (stereo not drawn) | CCRF-CEM | f
NC(=S)N/N=C1\c2ccccc2CCC1CCC1(O)CCc2ccccc2C1=O (stereo not drawn) | CCRF-CEM | f
Cc1cc(C)c(N)c(C)c1N | CCRF-CEM | f
O=[N+]([O-])c1cc(Cl)cc2cc(Cl)cnc12 | CCRF-CEM | f
COc1cc2c(cc1OCCCC(=O)Nc1cc(C(=O)Nc3cc(C(=O)Nc4cc(C(=O)NCCCN(C)C)n(C)c4)n(C)c3)n(C)c1)N=C[C@@H]1CCCN1C2=O | CCRF-CEM | t
CCOC(=O)C(=O)Nc1c(C)cccc1C(C)C | CCRF-CEM | f
COc1cc(N(CCC#N)CCC#N)ccc1C(/N=N/c1cccc(C)c1)=N\NC(=O)c1ccc(C)cc1 | CCRF-CEM | f
O=C(O)c1ccc(P(=O)(O)c2ccc(C(=O)O)cc2Br)c(Br)c1 | CCRF-CEM | f
Cn1cc(C[C@@H](N)C(=O)O)c2ccccc21 | CCRF-CEM | f
COc1ccc(CCN2CCN(CCCc3ccccc3)CC2)cc1 | CCRF-CEM | f
O=S(=O)(Nc1nc2ccccc2nc1N1CCCCCC1)c1ccccc1 | CCRF-CEM | f
COC1=CC(=O)C=C(OC)C1=O | CCRF-CEM | f
Brc1ccc(/C=N/C23CC4CC(CC(C4)C2)C3)cc1 | CCRF-CEM | f
CCCCN[C@H]1C2C3CC4C5CC(C42)C1(C)C53 (stereo partly drawn) | CCRF-CEM | f
COc1ccc([C@@H]2OC(=O)C3C2C(=O)O[C@H]3c2ccc(OC)c(OC)c2)cc1OC (stereo partly drawn) | CCRF-CEM | f
O=[N+]([O-])c1ccc(/N=N/c2c(O)ccc3cc(S(=O)(=O)O)cc(S(=O)(=O)O)c23)cc1 | CCRF-CEM | f
COc1cc(OC)c2c(=O)c(OC)c(-c3ccc4c(c3)OCO4)oc2c1OC | CCRF-CEM | f
Cn1cc(C(=O)NCCC(=N)N)cc1NC(=O)C1=[N+](C)C=C(NC(=O)c2cccc(C(=O)NC3=CC(C(=O)Nc4cc(C(=O)NCCC(=N)N)cn4C)=[N+](C)C3)c2)C1 | CCRF-CEM | f
CCOC(=O)C1=C(C(=O)OCC)C2c3ccccc3C=CN2C(C(=O)OCC)=C(SC)S1 (stereo not drawn) | CCRF-CEM | f
CCc1cccc(CC)c1Nc1nc2c(s1)C(=O)c1ccccc1C2=O | CCRF-CEM | f
NC(=O)NCCCC(NC(=O)OCCCCn1ccc(=O)[nH]c1=O)C(=O)O (stereo not drawn) | CCRF-CEM | f
O=C(Nc1nc2ccc([N+](=O)[O-])cc2s1)C(=O)C(C(=O)c1ccccc1F)C1OC(=O)c2ccccc21 (stereo not drawn) | CCRF-CEM | f
O=C1C(c2ccc(Br)cc2)=[N+]([O-])c2ccccc21 | CCRF-CEM | f
CC(C)NC(=O)OCc1c(COC(=O)NC(C)C)c(-c2cc[n+](COC(=O)C(C)C)cc2)n2c1CCC2 | CCRF-CEM | f
CC1=NN(C(=O)CC(=O)Nc2ccccc2C)C(=O)C1/N=N/c1ccc(C(=O)O)cc1 (stereo not drawn) | CCRF-CEM | f
NC(=S)N/N=C(\C(=O)Nc1cccc([N+](=O)[O-])c1)c1nc2ccc([N+](=O)[O-])cc2nc1O | CCRF-CEM | f
Oc1cc(CF)nc(S)n1 | CCRF-CEM | f
CN(C)CCC(CCN(C)C)=NOC(=O)c1ccccc1 | CCRF-CEM | f
CCOC(=O)C(NC(=O)Nc1ccccc1)(Nc1cccc(Cl)c1)C(F)(F)F (stereo not drawn) | CCRF-CEM | f
CCOC(=O)CC1(Cc2ccc(OCc3ccccc3)cc2)C(=O)OC(c2ccccc2)N1C(=O)c1ccccc1 (stereo not drawn) | CCRF-CEM | f
Cc1ccc(S(=O)(=O)N2CCN3CCN(CCN(C)CCN4CCN(CC4)CCN(S(=O)(=O)c4ccc(C)cc4)CCN(S(=O)(=O)c4ccc(C)cc4)CCN(S(=O)(=O)c4ccc(C)cc4)CCN(S(=O)(=O)c4ccc(C)cc4)CCN4CCN(CCN(C)CCN5CCN(CC5)CCN(S(=O)(=O)c5ccc(C)cc5)CCN(S(=O)(=O)c5ccc(C)cc5)CCN(S(=O)(=O)c5ccc(C)cc5)CC2)CC4)CC3)cc1 | CCRF-CEM | t
COC(=O)C1(C(=O)OC)N=C(C)OC1/C=C/c1ccccc1 (stereo not drawn) | CCRF-CEM | f
COc1cccc2cc(C(=O)Nc3ccccc3)c(=N)oc12 | CCRF-CEM | f
COCCOC1=CC(=O)c2c(O)ccc(O)c2C1=O | CCRF-CEM | f
